System: MDA-MB-435
Classes used: active, inactive

>>> print(df.to_string())
                                 mol_smiles  class_name
0  COc1ccc(Nc2nccc(N3CCN(c4c5ccc(Cl)cc5nc5ccc(OC)cc45)CC3)n2)cc1    inactive
1  COc1ccc(C(=O)c2nc3ccccc3n2CC(=O)c2ccc(Cl)cc2)cc1      active
2  Fc1ccc2nc(-c3cc(-c4ccc5c(c4)OCO5)n[nH]3)[nH]c2c1    inactive
3                CCn1c(-c2nonc2N)nc2ccncc21    inactive
4  COc1cc2nc(-c3ccc(C(F)(F)F)cc3)cc(OCCCN3CCCC3)c2cc1OC    inactive
5         CCCCCCCCCCCCCC[n+]1cccc(C(N)=O)c1    inactive
6  Nc1cc(-c2ccc(Cl)cc2)nn1-c1nnc(/C=C/c2ccco2)c(=O)[nH]1    inactive
7  [2H]c1nc(=Nc2cc(NC(=O)C=C)c(N(C)CCN(C)C)cc2OC)[nH]c(-c2cn(C([2H])([2H])[2H])c3ccccc23)c1[2H]    inactive
8  O=C1c2ccccc2-c2c1c1c(NCCCO)nc3ccccc3c1n2Cc1ccccc1    inactive

The measurements presented in this section are drawn from PubChem BioAssay (NCI).
